The reported measurements were obtained from patent US20230391783A1.

- Tested on: lymphocytes (fresh spleen cells)
- procedure-summary: Lymphocyte proliferation assay (ConA-induced spleen cells)
- Format: cell-based, rat
- setup-conditions: lymphocyte proliferation induced with 5 μg/mL ConA, 48 hours; test concentration not given
metric-name: Inhibition rate (%)
Entry rule: numbers only, all in %.

Some compounds with known Inhibition rate (%) results, for comparison:
INSERT INTO results (compound, metric_name, observed_result) VALUES
  ('O=C(OCc1cn(Cc2ccc3ccccc3c2)nn1)c1csc(C(=O)c2c[nH]c3ccccc23)n1', 'Inhibition rate (%)', 49.4),
  ('O=C(c1nc(C(=O)N2CCC[C@H]2c2ccccc2)cs1)c1c[nH]c2ccccc12', 'Inhibition rate (%)', 50.6),
  ('CC(C)=CCOC(=O)c1csc(C(=O)c2c[nH]c3ccccc23)n1', 'Inhibition rate (%)', 48.95),
  ('COC(=O)C1CCCCN1C(=O)c1csc(C(=O)c2c[nH]c3ccccc23)n1 (centres unmarked)', 'Inhibition rate (%)', 49.85);

// next item, Inhibition rate (%) requested
Query :: Form entry - test system: lymphocytes (fresh spleen cells); read-out: Inhibition rate (%); compound: `O=C(c1nc(C(=O)N2C[C@H](O)C[C@H]2C(=O)O)cs1)c1c[nH]c2ccccc12`
Result :: 58.56
